# TEST METHOD NOTES: molar heat capacity at constant pressure
# MEASUREMENT PARAMETERS: 310.65 K; 101.33 kPa; Liquid; Small sample (50 mg) DSC
MEASUREMENT TYPE: molar heat capacity at constant pressure (J/K/mol)

BrCCCCCCCCCCCCBr	432.62
BrCCCCCCCCCCCBr	401.02
BrCCCCCCCCBr	311.21
BrCCCCCCCCCBr	340.52

###

Measured molar heat capacity at constant pressure, listed per entry for reference.
# TEST METHOD NOTES: molar heat capacity at constant pressure
# MEASUREMENT PARAMETERS: 327.15 K; 101.33 kPa; Liquid; Small sample (50 mg) DSC
MEASUREMENT TYPE: molar heat capacity at constant pressure (J/K/mol)

BrCCCCCCCCCCCCBr	441.8
BrCCCCCCCCBr	317.71
BrCCCCCCCCCBr	347.91
BrCCCCCCCCCCCBr	409.84
